procedure-details: Pharmacokinetic study in mice, cassette intravenous injection and intragastric administration
Format: in vivo
measurement-conditions: mouse, plasma, IV 0.2 mg/kg, Balb/c female mice, read-out: Half-life T1/2 (converted)
endpoint-label: half-life (h)

Problem: Given the entry Cn1cc(-c2ccc3c(-c4cc(NS(=O)(=O)C5CC5)cc(-c5ccc(F)cc5F)c4)cnn3c2)cn1 [Compound 1] , report its measured half-life.
Result: 1.52

a. Cn1cc(-c2ccc3c(-c4cc(NS(C)(=O)=O)cc(-c5ccc(F)cc5F)c4)cnn3c2)cn1 [Compound 4]
b. CCS(=O)(=O)Nc1cc(-c2ccc(F)cc2F)cc(-c2cnn3cc(-c4cnn(C)c4)ccc23)c1 [Compound 2]
Problem: // which entry reports the smaller half-life, a or b ? Indicate which entry you chose by stating its label.
Result: a
(a: 1.17 h, b: 2.12 h)

----------
pIC50: −log10 of the molar value. Structures can show the parent of a compound that is named as a salt.
Record: pIC50 reported on human FGFR2 (Homo sapiens).
endpoint-label: pIC50

Problem: Given the entry CS(=O)(=O)Nc1cc(-c2ncc(F)cc2F)cc(-c2cnn3cc(-c4cnn(CC5COCCN5)c4)ccc23)c1 (centres unmarked) , report its measured pIC50.
Result: 9.14

Problem: Given the entry O=S(=O)(Nc1cc(-c2ccc(F)cc2F)cc(-c2cnn3cc(-c4cnn(C5CCNCC5)c4)ccc23)c1)C1CC1 [Hydrochloride salt of compound 51] , report its measured pIC50.
Result: 8.90

Problem: Given the entry CCS(=O)(=O)Nc1cc(-c2ncc(F)cc2F)cc(-c2cnn3cc(-c4cnn(C)c4)ccc23)c1 [Trifluoroacetate salt of compound 33] , report its measured pIC50.
Result: 8.92

Problem: Given the entry `CS(=O)(=O)Nc1cc(-c2ncc(F)cc2F)cc(-c2cnn3cc(-c4cnn(CCN5CCOCC5)c4)ccc23)c1` , report its measured pIC50.
Result: 9.14

Problem: Given the entry `CN1CCC(n2cc(-c3ccc4c(-c5cc(NS(C)(=O)=O)cc(-c6ccc(F)cc6F)c5)cnn4c3)cn2)CC1` , report its measured pIC50.
Result: 9.52

1. Cn1cc(-c2ccc3c(-c4cc(NCC(O)CO)cc(-c5ncc(F)cc5F)c4)cnn3c2)cn1 (centres unmarked)
2. CS(=O)(=O)Nc1cc(-c2ncc(F)cc2F)cc(-c2cnn3cc(-c4cnn(CC(O)CO)c4)ccc23)c1 (centres unmarked)
3. Cn1cc(-c2ccc3c(-c4cc(NC(=O)N5CCC(O)C5)cc(-c5ccc(F)cc5F)c4)cnn3c2)cn1 (centres unmarked)
4. CC(C)(O)Cn1cc(-c2ccc3c(-c4cc(NS(C)(=O)=O)cc(-c5ncc(F)cc5F)c4)cnn3c2)cn1
Problem: # sort list by recorded pIC50, greatest to least Arrange the labels as the request states and list them.
Result: 2, 1, 4, 3
(2: 9.38, 1: 8.98, 4: 8.75, 3: 7.40)

----------
pIC50: −log10 of the molar value.
Record: pIC50 reported on human FGFR2 (Homo sapiens).
endpoint-label: pIC50

Recorded results for 5 compounds are shown here.
Problem: Return pIC50 measured with human FGFR2 (Homo sapiens) given this compound: `CCS(=O)(=O)Nc1cc(-c2ccc(F)cc2F)cc(-c2cnn3cc(-c4cnn(C)c4)ccc23)c1`
Result: 8.58

Problem: Return pIC50 measured with human FGFR2 (Homo sapiens) given this compound: `Cn1cc(-c2ccc3c(-c4cc(NCC(C)(C)O)cc(-c5ccc(F)cc5F)c4)cnn3c2)cn1`
Result: 7.97

Problem: Return pIC50 measured with human FGFR2 (Homo sapiens) given this compound: `Cn1cc(-c2ccc3c(-c4cc(NS(=O)(=O)C5CC5)cc(-c5ccc(F)nc5F)c4)cnn3c2)cn1`
Result: 7.19

Problem: Return pIC50 measured with human FGFR2 (Homo sapiens) given this compound: CS(=O)(=O)Nc1cc(-c2ncc(F)cc2F)cc(-c2cnn3cc(-c4cnn(CC5COCCO5)c4)ccc23)c1 (stereo not shown)
Result: 9.02

Problem: Return pIC50 measured with human FGFR2 (Homo sapiens) given this compound: Cn1cc(-c2ccc3c(c2)ncn3-c2cc(NS(=O)(=O)C3CC3)cc(-c3ccc(F)cc3F)c2)cn1 [reference compound]
Result: 7.52

a. Cn1cc(-c2ccc3c(-c4cc(NCC5COC(C)(C)O5)cc(-c5ncc(F)cc5F)c4)cnn3c2)cn1 (stereo not shown)
b. CS(=O)(=O)Nc1cc(-c2ncc(F)cc2F)cc(-c2cnn3cc(-c4cnn(CC5COCCN5Cc5ccccc5)c4)ccc23)c1 (stereo not shown)
Problem: // which entry reports the smaller pIC50, a or b ? Indicate which entry you chose by stating its label.
Result: b
(b: 7.53, a: 9.02)

----------
procedure-details: Pharmacokinetic study in mice, cassette intravenous injection and intragastric administration
Format: in vivo
measurement-conditions: mouse, plasma, IV 0.2 mg/kg, Balb/c female mice, read-out: Area under the plasma concentration-time curve from time zero to 24 hours AUC0-24 h
endpoint-label: AUC(0-t) (µM·h)

Problem: Given the entry Cn1cc(-c2ccc3c(-c4cc(NS(=O)(=O)C5CC5)cc(-c5ccc(F)cc5F)c4)cnn3c2)cn1 [Compound 1] , report its measured AUC(0-t).
Result: 0.751

A. Cn1cc(-c2ccc3c(-c4cc(NS(C)(=O)=O)cc(-c5ccc(F)cc5F)c4)cnn3c2)cn1 [Compound 4]
B. CCS(=O)(=O)Nc1cc(-c2ccc(F)cc2F)cc(-c2cnn3cc(-c4cnn(C)c4)ccc23)c1 [Compound 2]
Problem: // which entry reports the smaller AUC(0-t), A or B ? Indicate which entry you chose by stating its label.
Result: A

----------
procedure-details: Pharmacokinetic study in mice, cassette intravenous injection and intragastric administration
Assay type: in vivo
measurement-conditions: mouse, plasma, PO 1 mg/kg, Balb/c female mice, read-out: Time to peak Tmax
endpoint-label: Tmax (h)

Problem: Given the entry CCS(=O)(=O)Nc1cc(-c2ccc(F)cc2F)cc(-c2cnn3cc(-c4cnn(C)c4)ccc23)c1 [Compound 2] , report its measured Tmax.
Result: 2

Problem: Given the entry Cn1cc(-c2ccc3c(-c4cc(NS(C)(=O)=O)cc(-c5ccc(F)cc5F)c4)cnn3c2)cn1 [Compound 4] , report its measured Tmax.
Result: 2

Problem: Given the entry Cn1cc(-c2ccc3c(-c4cc(NS(=O)(=O)C5CC5)cc(-c5ccc(F)cc5F)c4)cnn3c2)cn1 [Compound 1] , report its measured Tmax.
Result: 2

----------
target: human VEGFR2 (Homo sapiens)
Construct: purchased Invitrogen PR5992C
Sequence (P35968 20-1356): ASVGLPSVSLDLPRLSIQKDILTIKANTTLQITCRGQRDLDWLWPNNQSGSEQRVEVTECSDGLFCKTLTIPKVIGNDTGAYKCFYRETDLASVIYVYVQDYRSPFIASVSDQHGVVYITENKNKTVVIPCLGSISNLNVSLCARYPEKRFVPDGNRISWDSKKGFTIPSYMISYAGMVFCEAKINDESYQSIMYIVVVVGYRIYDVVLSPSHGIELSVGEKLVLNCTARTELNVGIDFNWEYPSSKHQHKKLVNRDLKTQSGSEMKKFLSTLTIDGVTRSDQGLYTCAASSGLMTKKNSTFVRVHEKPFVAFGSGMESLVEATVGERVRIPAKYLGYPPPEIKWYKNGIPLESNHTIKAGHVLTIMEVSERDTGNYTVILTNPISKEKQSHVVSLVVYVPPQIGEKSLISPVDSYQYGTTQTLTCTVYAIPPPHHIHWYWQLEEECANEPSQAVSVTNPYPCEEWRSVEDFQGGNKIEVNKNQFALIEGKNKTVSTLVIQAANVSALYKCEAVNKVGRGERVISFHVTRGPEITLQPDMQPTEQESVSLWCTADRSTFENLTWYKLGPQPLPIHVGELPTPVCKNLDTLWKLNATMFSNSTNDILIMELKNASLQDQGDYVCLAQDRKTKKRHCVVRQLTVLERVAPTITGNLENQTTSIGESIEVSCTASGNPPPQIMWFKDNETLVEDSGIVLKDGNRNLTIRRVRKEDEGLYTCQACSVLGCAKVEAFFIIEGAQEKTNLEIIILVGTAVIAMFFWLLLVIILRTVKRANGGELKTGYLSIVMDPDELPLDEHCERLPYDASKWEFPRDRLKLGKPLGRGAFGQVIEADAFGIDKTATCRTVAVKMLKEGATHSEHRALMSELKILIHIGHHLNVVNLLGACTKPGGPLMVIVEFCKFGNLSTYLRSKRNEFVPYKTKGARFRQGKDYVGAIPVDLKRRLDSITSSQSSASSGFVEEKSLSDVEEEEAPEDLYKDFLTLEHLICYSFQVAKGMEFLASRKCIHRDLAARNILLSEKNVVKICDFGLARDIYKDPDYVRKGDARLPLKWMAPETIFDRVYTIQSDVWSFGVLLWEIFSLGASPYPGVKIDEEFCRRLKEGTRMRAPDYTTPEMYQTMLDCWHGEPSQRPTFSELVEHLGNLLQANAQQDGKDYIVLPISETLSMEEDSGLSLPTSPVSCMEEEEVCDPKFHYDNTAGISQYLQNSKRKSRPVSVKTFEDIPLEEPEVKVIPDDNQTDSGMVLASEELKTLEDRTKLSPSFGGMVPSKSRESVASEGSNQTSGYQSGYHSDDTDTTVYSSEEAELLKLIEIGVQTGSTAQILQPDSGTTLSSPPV
procedure-details: 33P isotope-labeled kinase activity test (Reaction Biology Corp), VEGFR2
Type: biochemical
measurement-conditions: 33P-ATP 20 μM, kinase 1 nM, 120 min room temperature
endpoint-label: IC50 (nM)

Recorded results for 2 compounds are shown here.
Problem: Given the entry Cn1cc(-c2ccc3c(-c4cc(NC(=O)N5CCC(O)C5)cc(-c5ccc(F)cc5F)c4)cnn3c2)cn1 (stereo not shown) , report its measured IC50.
Result: 22.4

Problem: Given the entry CS(=O)(=O)Nc1cc(-c2ncc(F)cc2F)cc(-c2cnn3cc(-c4cnn(CC5COCCN5)c4)ccc23)c1 (stereo not shown) , report its measured IC50.
Result: 1.4

P. CS(=O)(=O)Nc1cc(-c2ccc(F)cc2F)cc(-c2cnn3cc(-c4cnn(CC(O)CO)c4)ccc23)c1 (stereo not shown)
Q. CS(=O)(=O)Nc1cc(-c2ncc(F)cc2F)cc(-c2cnn3cc(-c4cnn(CC(O)CO)c4)ccc23)c1 (stereo not shown)
Problem: Between P and Q , which one shows the larger IC50 value? Indicate which entry you chose by stating its label.
Result: P

----------
Where a name gives a salt, the structure may show the parent alone.
Record: IC50 reported on human FGFR2 (Homo sapiens, UniProt P21802).
Sequence (P21802 22-821): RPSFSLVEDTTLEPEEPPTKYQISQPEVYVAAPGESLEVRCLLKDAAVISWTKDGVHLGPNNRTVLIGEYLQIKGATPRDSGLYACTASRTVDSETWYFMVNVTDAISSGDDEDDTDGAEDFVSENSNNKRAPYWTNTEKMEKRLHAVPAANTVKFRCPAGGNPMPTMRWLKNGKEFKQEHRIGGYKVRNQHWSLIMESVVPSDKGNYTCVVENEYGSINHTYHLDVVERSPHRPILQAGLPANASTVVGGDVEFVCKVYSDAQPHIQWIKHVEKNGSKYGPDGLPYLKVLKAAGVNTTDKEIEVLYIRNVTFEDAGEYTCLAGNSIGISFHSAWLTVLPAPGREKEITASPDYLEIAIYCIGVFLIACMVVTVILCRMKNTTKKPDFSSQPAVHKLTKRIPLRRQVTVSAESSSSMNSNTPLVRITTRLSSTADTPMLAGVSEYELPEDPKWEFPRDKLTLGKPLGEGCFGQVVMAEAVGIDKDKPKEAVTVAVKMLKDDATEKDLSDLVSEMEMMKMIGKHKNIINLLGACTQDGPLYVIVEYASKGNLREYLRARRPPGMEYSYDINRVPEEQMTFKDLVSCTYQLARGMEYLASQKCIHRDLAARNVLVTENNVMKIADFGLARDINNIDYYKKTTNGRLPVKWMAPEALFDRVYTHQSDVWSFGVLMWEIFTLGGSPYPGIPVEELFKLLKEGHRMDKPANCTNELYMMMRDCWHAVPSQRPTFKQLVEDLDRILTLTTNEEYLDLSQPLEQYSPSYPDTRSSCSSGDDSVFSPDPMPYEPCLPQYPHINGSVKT
endpoint-label: IC50 (nM)

Problem: Given the entry Cn1cc(-c2ccc3c(-c4cc(NS(=O)(=O)C5CC5)cc(-c5ccc(F)nc5)c4)cnn3c2)cn1 [Trifluoroacetate salt of compound 9] , report its measured IC50.
Result: 73.3

P. CS(=O)(=O)Nc1cc(-c2ccc(F)cc2F)cc(-c2cnn3cc(-c4cnn(C5CCNCC5)c4)ccc23)c1 [Hydrochloride salt of compound 21]
Q. CS(=O)(=O)Nc1cc(-c2cnn3cc(-c4cnn(CCN5CCOCC5)c4)ccc23)cc(-c2ccc(F)cc2F)n1 [Trifluoroacetate salt of compound 29]
R. Cn1cc(-c2ccc3c(-c4cc(NS(C)(=O)=O)cc(-c5ccc(F)cc5F)c4)cnn3c2)nn1 [Trifluoroacetate salt of compound 26]
S. Cc1ncn(-c2ccc3c(-c4cc(NS(C)(=O)=O)cc(-c5ccc(F)cc5F)c4)cnn3c2)n1
T. CS(=O)(=O)Nc1cc(-c2ncc(F)cc2F)cc(-c2cnn3cc(-c4cnn(C5CCNCC5)c4)ccc23)c1 [Hydrochloride salt of compound 37]
Problem: Give the ascending ranking of the items by reported IC50. Arrange the labels as the request states and list them.
Result: T, P, R, Q, S

----------
target: human FGFR1 (Homo sapiens, UniProt P11362)
Sequence (P11362 22-822): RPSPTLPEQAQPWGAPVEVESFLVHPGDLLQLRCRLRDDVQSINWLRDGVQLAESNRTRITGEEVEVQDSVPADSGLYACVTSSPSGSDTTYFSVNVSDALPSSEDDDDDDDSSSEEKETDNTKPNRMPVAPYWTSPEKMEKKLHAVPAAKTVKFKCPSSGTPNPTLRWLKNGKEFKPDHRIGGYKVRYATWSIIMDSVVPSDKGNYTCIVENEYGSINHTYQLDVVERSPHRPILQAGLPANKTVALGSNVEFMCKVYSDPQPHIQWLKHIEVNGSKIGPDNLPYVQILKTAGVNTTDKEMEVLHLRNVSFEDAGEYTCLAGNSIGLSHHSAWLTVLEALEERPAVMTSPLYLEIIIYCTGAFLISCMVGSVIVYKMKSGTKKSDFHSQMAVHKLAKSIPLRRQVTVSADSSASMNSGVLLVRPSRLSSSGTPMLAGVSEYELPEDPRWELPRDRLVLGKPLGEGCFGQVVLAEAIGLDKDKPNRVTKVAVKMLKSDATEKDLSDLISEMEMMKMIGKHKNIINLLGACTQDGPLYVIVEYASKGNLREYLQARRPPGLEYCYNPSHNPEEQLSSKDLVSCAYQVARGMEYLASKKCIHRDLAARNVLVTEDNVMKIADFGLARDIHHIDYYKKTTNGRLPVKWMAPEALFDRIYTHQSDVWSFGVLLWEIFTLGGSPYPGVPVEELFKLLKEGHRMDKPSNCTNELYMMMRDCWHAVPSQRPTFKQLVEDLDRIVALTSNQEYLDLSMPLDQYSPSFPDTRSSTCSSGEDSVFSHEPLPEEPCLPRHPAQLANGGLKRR
pIC50: −log10 of the molar value.
endpoint-label: pIC50

Problem: Given the entry Cn1cc(-c2ccc3c(-c4cc(NS(=O)(=O)C5CC5)cc(-c5ccc(F)cc5F)c4)cnn3c2)cn1 [Compound 1] , report its measured pIC50.
Result: 8.20

Problem: Given the entry Cn1cc(-c2ccc3c(-c4cc(NS(=O)(=O)C5CC5)nc(-c5ccc(F)cc5F)c4)cnn3c2)cn1 [Compound 14] , report its measured pIC50.
Result: 7.99

Problem: Given the entry Cn1cc(-c2ccc3c(c2)ncn3-c2cc(NS(=O)(=O)C3CC3)cc(-c3ccc(F)cc3F)c2)cn1 [reference compound] , report its measured pIC50.
Result: 7.65

A. Cn1cc(-c2cnc3c(-c4cc(NS(=O)(=O)C5CC5)cc(-c5ccc(F)cc5F)c4)cnn3c2)cn1 [Compound 5]
B. CC(C)Nc1cc(-c2ccc(F)cc2F)cc(-c2cnn3cc(-c4cnn(C)c4)ccc23)c1 [Compound 6]
Problem: // which entry reports the smaller pIC50, A or B ? Indicate which entry you chose by stating its label.
Result: B
